assay.summary: NOD1 signaling inhibitors, primary screen, cell-based, luminescence, uHTS (AID 1578);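 also: HEK-293T reporter cells stimulated with the NOD1 agonist gamma-tri-DAP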
condition.label: NOD1-driven NF-kB luciferase reporter cells, at 4 µM
Among all 290,000 compounds or so, about 3,000 (1%) were called active. Rule as the data show it: active = inhibition mostly above about 36% (no sharp cut-off); inactive = mostly below about 34%. Shown is part of a subset that was picked to be rich in actives.
Possible outcomes: T for active, F for inactive

{"chemical.structure": "Cc1ccc(-n2c(C)n[nH]c2=S)cc1C", "answer.label": "F"}
{"chemical.structure": "Cc1ccc(-c2cc(C)nc3ncnn23)cc1", "answer.label": "F"}
{"chemical.structure": "C/C=C(\\CS(=O)(=O)c1ccccc1)S(=O)(=O)c1ccccc1", "answer.label": "F"}
{"chemical.structure": "Cc1ccccc1SCC(=O)N/N=C/c1ccc(F)cc1", "answer.label": "F"}
{"chemical.structure": "COc1ccc(OCc2nnc(SCC(=O)NC3CCCCC3)o2)cc1", "answer.label": "F"}
{"chemical.structure": "CCOc1ccc(-c2nnc(NC(=O)Cc3ccc(OC)cc3)o2)cc1", "answer.label": "F"}
{"chemical.structure": "COc1ccc(Cc2nnc(SCC(=O)NC3CCCC3)o2)cc1", "answer.label": "T"}
{"chemical.structure": "CC1=CS/C(=C(/C#N)C(=O)NCc2ccco2)N1c1ccccc1", "answer.label": "F"}

====

assay.summary: NOD1 signaling inhibitors, primary screen, cell-based, luminescence, uHTS (AID 1578);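 also: HEK-293T reporter cells stimulated with the NOD1 agonist gamma-tri-DAP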
condition.label: NOD1-driven NF-kB luciferase reporter cells, at 4 µM, stronger effect = higher value
Hit rate of the full screen: of about 290,000 compounds, about 3,000 (1%) were called active. For the sample, actives were picked, then their nearest neighbours and some compounds at random.
inhibition values for the compounds below.
test.readout: inhibition (%)

{"compound": "CC(=O)c1cccc(NC(=O)Cn2c(=O)oc3cc(S(=O)(=O)N4CCCC4)ccc32)c1", "number": -4.9}
{"compound": "COc1ccc2sc3ccccc3c(=O)c2c1OC", "number": 97.4}
{"compound": "CCOC(=O)Cc1c(C)nc2c(-c3ccccc3)c[nH]n2c1=O", "number": -6.6}
{"compound": "CCOC(=O)C1CCN(c2ccc(-c3cccs3)nn2)CC1", "number": -0.9}
{"compound": "CCc1cc(=O)oc2cc(OC(C)=O)cc(OC(C)=O)c12", "number": 41.8}
{"compound": "CCCCN1CN(S(=O)(=O)c2ccc(OC)cc2)c2nc3ccccc3nc21", "number": -13.8}
{"compound": "C/C(O)=c1/ccc2cccc3nc(C)nc1c23", "number": -3.6}
{"compound": "CC(=O)Nc1cccc(S(=O)(=O)N2CCCCCC2)c1", "number": -15.2}
{"compound": "Cc1ccc2c(c1)N(S(=O)(=O)c1cc(-c3onc(C)c3C)ccc1C)CCO2", "number": 29.7}
{"compound": "CCOC(=O)Cc1cc(=O)n2[nH]cc(-c3cccc(Br)c3)c2n1", "number": 27.2}
{"compound": "CC(NC(=O)NC(=O)c1ccc(Cl)cc1Cl)C1CC1 (configuration not stated)", "number": -53}
{"compound": "O=C(NCc1ccc2c(c1)OCO2)Nc1ccc([N+](=O)[O-])cc1", "number": -44.5}
{"compound": "COc1cccc2sc3ccc(C#Cc4ccc(N)cc4)cc3c(=O)c12", "number": -70}
{"compound": "O=C(CCN1CCCCO1)N1CCCC(N2CCN(c3ccc(F)cc3)CC2)C1 (configuration not stated)", "number": -8.6}
{"compound": "COc1ccc(C2CC(c3ccc4ccccc4c3OC(C)=O)=NN2C(C)=O)cc1 (configuration not stated)", "number": -2.5}
{"compound": "Cc1ccc(N/C(=C\\C(=O)c2ccccc2)C(=O)O)cc1", "number": -33.5}
{"compound": "CC1=C(C)C(=O)C(CCCCC#CCCCC#CCO)=C(C)C1=O", "number": -6.7}
{"compound": "O=[N+]([O-])c1ccc(NCc2ccc3c(c2)OCO3)cc1", "number": 88.5}
{"compound": "CCOc1ccc(N2CC(C(=O)Nc3nnc(C4CCCCC4)s3)CC2=O)cc1 (configuration not stated)", "number": -28.2}
{"compound": "CC(=O)Nc1ccc2[nH]c3ccccc3c2c1", "number": -15.1}
{"compound": "O=C(Cn1c(=O)oc2cc(S(=O)(=O)N3CCCC3)ccc21)Nc1ccc(C(F)(F)F)cc1", "number": 8.8}
{"compound": "CCN1C(=O)/C(=C\\N(C(C)=O)c2ccccc2)OC1=S", "number": 55.5}
{"compound": "CCn1c(=O)c([N+](=O)[O-])c(N2CCSCC2)c2ccccc21", "number": 8.8}
{"compound": "COc1ccc2sc3ccccc3c(=O)c2c1", "number": -32.1}
{"compound": "COc1ccc(/C(C)=N/NC(=O)c2nnn(-c3nonc3N)c2CN(C)c2ccccc2)cc1", "number": -7.2}
{"compound": "CS(=O)(=O)c1ccc(Cl)c(NC(=O)CCl)c1", "number": 43.3}
{"compound": "O=C(c1ccc2nc(-c3ccco3)c(-c3ccco3)nc2c1)N1CCN(c2ccccc2)CC1", "number": 3.4}
{"compound": "CC(=O)Oc1cc(OC(C)=O)c2c(C)cc(=O)oc2c1", "number": 13.6}
{"compound": "CC(C(=O)OCC(=O)c1cccc([N+](=O)[O-])c1)N1C(=O)C2C3CCC(C3)C2C1=O (configuration not stated)", "number": -8.4}
{"compound": "O/C=c1\\ccc2cccc3nc(C(F)(F)F)nc1c23", "number": 38}
{"compound": "CCN1C(=O)/C(=C/N(C(C)=O)c2ccccc2)N(c2ccccc2)C1=S", "number": 11.4}
{"compound": "CCc1cc(=O)oc2cc(C)cc(OCC(C)=O)c12", "number": -8.5}
{"compound": "CCOC(=O)c1cnc2ccc(C(=O)OC)cc2c1Nc1ccc(C(=O)O)cc1", "number": -16.9}
{"compound": "c1csc(-c2ccc(N3CCOCC3)nn2)c1", "number": -11.8}
{"compound": "COC1=C(OC)C(=O)C(CCCCCCCCCCO)=C(C)C1=O", "number": 87.7}
{"compound": "O=C(Cn1[nH]c(=O)c2ccccc2c1=O)Nc1cccc(S(=O)(=O)N2CCCCCC2)c1", "number": 55}
{"compound": "CCN1C(=O)/C(=C/N(C)c2ccccc2)OC1=S", "number": -15.3}
{"compound": "COC(=O)c1ccc(CNC(=O)N2CCN(S(=O)(=O)c3ccc(C)cc3)CC2)cc1", "number": -19.3}
{"compound": "CCN(CC)c1nc2c(c(=O)[nH]c(=O)n2C)n1CCCc1ccccc1", "number": -13.8}
{"compound": "O=C(Nc1ccc(Cl)cc1)c1cc2c(cc1O)[nH]c1ccccc12", "number": 43.7}
{"compound": "Cc1cccc(N2CCN(C(=O)c3ccc4nc(-c5ccco5)c(-c5ccco5)nc4c3)CC2C)c1 (configuration not stated)", "number": 60.5}
{"compound": "Oc1ccc(Cl)cc1C=Nc1ccc2c3c(cccc13)CC2", "number": 38.7}

====

assay.summary: NOD1 signaling inhibitors, primary screen, cell-based, luminescence, uHTS (AID 1578);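 also: HEK-293T reporter cells stimulated with the NOD1 agonist gamma-tri-DAP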
condition.label: NOD1-driven NF-kB luciferase reporter cells, at 4 µM
The whole screen tested about 290,000 compounds, of which about 3,000 (1%) were called active. No stated cut-off is given here; in the data, active means inhibition mostly above about 36% (no sharp cut-off); inactive means mostly below about 34%. The sample holds actives, similar compounds and a random draw of the others, so the mix is not that of the screen.
Outcome codes: active, inactive

{"chemical.structure": "O=C(CCCn1c(=S)[nH]c2cc3c(cc2c1=O)OCO3)N1CCN(c2ccccc2)CC1", "answer.label": "inactive"}
{"chemical.structure": "CCN(CC)CCCNC1=C(Cl)C(=O)c2ccccc2C1=O", "answer.label": "active"}
{"chemical.structure": "CCNC1=C(Cl)C(=O)c2ccccc2C1=O", "answer.label": "inactive"}
{"chemical.structure": "CCCn1c(C)nc2cc(Cl)c(N3CCN(c4nc(-c5ccc(C)cc5)cs4)CC3)cc21", "answer.label": "inactive"}

====

assay.summary: NOD1 signaling inhibitors, primary screen, cell-based, luminescence, uHTS (AID 1578);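 also: HEK-293T reporter cells stimulated with the NOD1 agonist gamma-tri-DAP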
condition.label: NOD1-driven NF-kB luciferase reporter cells, at 4 µM
Screen size: about 290,000 compounds; about 3,000 (1%) were called active. Rule as the data show it: active = inhibition mostly above about 36% (no sharp cut-off); inactive = mostly below about 34%. Only a selection was taken, and actives are over-represented in it overall.
Labels: active, inactive

{"compound": "COc1ccc(C(C(=O)NC2CCCCC2)N(C(=O)c2ccco2)c2ccccc2C(C)=O)cc1OC (configuration not stated)", "answer.label": "inactive"}
{"compound": "CNC(=S)NCCc1ccc(OC)c(OC)c1", "answer.label": "inactive"}
{"compound": "Cc1ccc(C(NC(=O)N2CCCCC2)=C(Cl)Cl)cc1F", "answer.label": "active"}
{"compound": "COc1ccc(S(=O)(=O)N(C)c2ccc(C(=O)Nc3c(C)n(C)n(-c4ccccc4)c3=O)cc2)cc1", "answer.label": "inactive"}
{"compound": "O=S(=O)(CC(CN1CCCCC1)N1CCCCC1)c1ccccc1 (configuration not stated)", "answer.label": "inactive"}
{"compound": "CC(C)OCCCNC(=O)c1cc(-c2cccnc2)nc2ccccc12", "answer.label": "inactive"}
{"compound": "Cc1nn(-c2ccccc2)c2c1C(c1ccc(O)c(O)c1)N1C(=N2)C(Nc2ccccc2)=Nc2ccccc21 (configuration not stated)", "answer.label": "inactive"}
